protein stability index for assorted variants
B1: WEE1 (parent)
chain: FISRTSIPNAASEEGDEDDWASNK

- Variants of: B1
- TEST DETAILS: protein stability index of a GFP-peptide fusion (GPS, HEK-293T) (PSI 1-6); higher = more stable;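 also: lentivirally expressed fusions sorted by FACS into six bins by GFP to DsRed ratio, PSI derived from sequencing read proportions per bin multiplied by bin number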
- SETUP CONDITIONS: c terminus: a fixed tail appended

E13S = 3.9

**Q:** Please give the measured protein stability index for this variant: R4K
**A:** 3.86

**Q:** Could you tell me which protein stability index is on file for N23I ?
**A:** 3.79

**Q:** Entry S12F : reported protein stability index = ?
**A:** 3.68

**Q:** Look up protein stability index for this variant: D19H
**A:** 3.61

**Q:** Which measured protein stability index value corresponds to S3G ?
**A:** 3.17

**Q:** Name the recorded protein stability index for D19Y .
**A:** 3.27

**Q:** What value of measured protein stability index is listed for N9A ?
**A:** 3.66

**Q:** Bench note: what protein stability index did A11I show?
**A:** 3.48

**Q:** Would you kindly share the measured protein stability index for T5W ?
**A:** 2.71

**Q:** Quick one: protein stability index of I7W ?
**A:** 2.82
